Target Or Test System: HMG-CoA reductase (Homo sapiens, UniProt P04035)
Sequence (P04035 426-888 limits assumed): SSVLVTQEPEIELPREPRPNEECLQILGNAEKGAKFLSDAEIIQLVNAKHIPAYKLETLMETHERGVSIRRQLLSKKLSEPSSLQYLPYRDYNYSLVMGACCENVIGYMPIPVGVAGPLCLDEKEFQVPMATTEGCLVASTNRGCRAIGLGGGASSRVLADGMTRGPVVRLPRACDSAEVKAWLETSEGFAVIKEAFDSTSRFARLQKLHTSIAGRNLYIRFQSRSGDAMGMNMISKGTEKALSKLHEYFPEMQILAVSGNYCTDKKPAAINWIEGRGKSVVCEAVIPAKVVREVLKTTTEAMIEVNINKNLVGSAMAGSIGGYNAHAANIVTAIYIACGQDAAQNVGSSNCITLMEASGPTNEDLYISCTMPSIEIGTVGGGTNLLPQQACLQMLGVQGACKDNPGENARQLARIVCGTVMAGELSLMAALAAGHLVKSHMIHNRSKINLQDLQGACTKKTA
Measurement Name: pIC50
Answer as the number alone; pIC50 is minus log10 of concentration in mol/L.

Solved cases (3 shown):
> print(dat)
                                   compound                     target.or.test.system  measured.number
1  CC(C)=CCC/C(C)=C/CCC1=C[C@H](c2ccc([N+](=O)[O-])cc2)OC1=O  HMG-CoA reductase (Homo sapiens, UniProt P04035)             5.13
2  CC(C)=CCC/C(C)=C/CCC1=C[C@@H](c2ccccc2[N+](=O)[O-])OC1=O  HMG-CoA reductase (Homo sapiens, UniProt P04035)             4.86
3  CC(C)=CCC/C(C)=C/CCC1=C[C@@H](c2cc(O)ccc2O)OC1=O  HMG-CoA reductase (Homo sapiens, UniProt P04035)             5.05

CC(C)=CCC/C(C)=C/CCC1=C[C@@H](c2ccc(C)cc2)OC1=O has a reported pIC50 of 4.90

pIC50 measured on CC(C)=CCC/C(C)=C/CCC(CC(=O)c1cc(O)ccc1O)C(=O)O (stereo not drawn) = 5.38

The reported pIC50 of the compound CC(C)=CCC/C(C)=C/CCC1=C[C@H](c2cc(O)ccc2O)OC1=O was 5.10

Recorded pIC50 (compound CC(C)=CCC/C(C)=C/CCC1=C[C@@H](c2ccc(C(C)(C)C)cc2)OC1=O ): 4.82

The reported value for C/C(=C\CC/C(C)=C/CC/C(=C/Cc1cc(O)ccc1O)C(=O)O)CO in terms of pIC50 is 4.48

pIC50 reported for this compound COCOc1ccccc1[C@H]1C=C(CC/C=C(\C)CCC=C(C)C)C(=O)O1 : 5.05

----------
Experiment Description: acute toxicity test of mice
Assay Setup: Kunming, mouse, in vivo, po, 5 g/kg
In this section we review reported LD50 values for a set of molecules.

> print(dat)
                                        smi        result
1  CC(C)=CCC/C(C)=C/CCC1=C[C@@H](c2cc(O)ccc2O)OC1=O  > 5000 mg/kg

Kindly consider the entry below.
Lookup result for CC(C)=CCC/C(C)=C/CCC1=C[C@H](c2cc(O)ccc2O)OC1=O ; measured LD50: > 5000 mg/kg

----------
Target Or Test System: α-glucosidase (Saccharomyces cerevisiae, UniProt P53341)
Construct: purchased Sigma Corporation G5003
Sequence (P53341 whole entry): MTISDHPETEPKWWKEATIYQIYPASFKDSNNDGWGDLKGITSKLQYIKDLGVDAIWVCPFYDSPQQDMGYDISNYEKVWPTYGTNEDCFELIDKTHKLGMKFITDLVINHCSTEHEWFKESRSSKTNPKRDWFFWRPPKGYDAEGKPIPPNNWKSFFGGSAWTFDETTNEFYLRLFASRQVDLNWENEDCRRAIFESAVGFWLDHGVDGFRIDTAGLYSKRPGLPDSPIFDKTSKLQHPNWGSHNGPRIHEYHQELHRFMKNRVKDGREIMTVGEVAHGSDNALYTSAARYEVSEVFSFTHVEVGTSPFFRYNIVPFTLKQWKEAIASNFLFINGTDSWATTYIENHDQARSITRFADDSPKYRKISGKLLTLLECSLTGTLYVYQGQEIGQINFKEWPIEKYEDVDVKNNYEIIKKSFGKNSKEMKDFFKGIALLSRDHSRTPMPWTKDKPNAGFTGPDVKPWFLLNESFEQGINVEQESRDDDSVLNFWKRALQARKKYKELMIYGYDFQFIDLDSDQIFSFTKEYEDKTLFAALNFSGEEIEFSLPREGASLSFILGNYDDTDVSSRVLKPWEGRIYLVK
Experiment Description: α-glucosidase inhibitory activity test in vitro
Type: biochemical
Assay Setup: read-out: α-glucosidase inhibitory activity (IC50)
Measurement Name: pIC50
# pIC50 = -log10(concentration in molar units)

Examples with answers:
> print(dat)
                                        smi  measurement.name  measured.number
1  CC(C)=CCC/C(C)=C/CCC1=C[C@H](c2cc(F)c(F)c(F)c2)OC1=O             pIC50             5.90
2  COc1ccc(OC)c([C@@H]2C=C(CC/C=C(\C)CCC=C(C)C)C(=O)O2)c1             pIC50             4.82
3     CC(C)=CCCC1=C[C@H](c2cc(O)ccc2O)OC1=O             pIC50             5.88
4  CC(C)=CCC/C(C)=C/CCC1=C[C@@H](c2ccccc2[N+](=O)[O-])OC1=O             pIC50             6.68

From here, focus on the item given below.
The recorded pIC50 for CC(C)=CCC/C(C)=C/CCC1=C[C@@H](c2ccc([N+](=O)[O-])cc2)OC1=O is 4.52

----------
Target Or Test System: HMG-CoA reductase (Homo sapiens, UniProt P04035)
Sequence (P04035 426-888 limits assumed): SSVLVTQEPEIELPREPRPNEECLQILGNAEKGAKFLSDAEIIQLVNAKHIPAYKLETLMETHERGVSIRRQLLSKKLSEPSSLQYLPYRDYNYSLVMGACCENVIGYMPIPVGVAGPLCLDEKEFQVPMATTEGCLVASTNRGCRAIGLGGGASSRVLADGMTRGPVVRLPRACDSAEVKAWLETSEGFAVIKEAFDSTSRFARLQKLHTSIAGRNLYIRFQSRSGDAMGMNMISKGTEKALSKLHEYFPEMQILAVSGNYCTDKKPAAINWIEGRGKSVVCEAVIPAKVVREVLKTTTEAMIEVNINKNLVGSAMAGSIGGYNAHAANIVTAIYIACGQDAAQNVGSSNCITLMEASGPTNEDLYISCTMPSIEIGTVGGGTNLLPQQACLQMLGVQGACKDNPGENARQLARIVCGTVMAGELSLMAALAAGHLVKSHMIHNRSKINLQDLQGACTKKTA
# Lookup of reported IC50 keyed by entry
Reply numerically in µM, unit not repeated.

Solved entries:
> print(dat)
                                   molecule  measured.number
1  CC(C)=CCC/C(C)=C/CCC1=C[C@H](c2c(F)cccc2F)OC1=O [S14]             25.1
2  CC(C)=CCC/C(C)=C/CCC1=C[C@@H](c2ccc([N+](=O)[O-])cc2)OC1=O [S26]              7.5
3  COC1(c2cc(O)ccc2O)C=C(CC/C=C(\C)CCC=C(C)C)C(=O)O1 (stereo not drawn) [S31]             32.3
4  COc1ccc(OC)c([C@H]2C=C(CC/C=C(\C)CCC=C(C)C)C(=O)O2)c1 [S12]              4.4
5  CC(C)=CCC/C(C)=C/CCC1=C[C@H](c2ccc3ccccc3c2)OC1=O [S2]             49.8

Turning now to a further record.
Summary for this molecule, CC(C)=CCC/C(C)=C/CCC1=C[C@@H](c2ccc3ccccc3c2)OC1=O [S17] : IC50 is 42.2

----------
Quick reference for pIC50 among some compounds
Target Or Test System: α-glucosidase (Saccharomyces cerevisiae)
Construct: purchased Sigma Corporation G5003
Experiment Description: α-glucosidase inhibitory activity test in vitro
Format: biochemical
Please express pIC50 as -log10 of the molar concentration.

As a guide, the following entries are already answered.
> print(dat)
                                   compound  measurement.name  measured.number
1  CC(C)c1c(C(=O)Nc2ccccc2)c(-c2ccccc2)c(-c2ccc(F)cc2)n1CC[C@@H](O)C[C@@H](O)CC(=O)O [atorvastatin, reference compound]             pIC50             3.56
2  C/C(=C\CC/C(C)=C/CC/C(=C/Cc1cc(O)ccc1O)C(=O)O)CO             pIC50             4.91
3  COC1(c2cc(O)ccc2O)C=C(CC/C=C(\C)CCC=C(C)C)C(=O)O1 (centres unmarked)             pIC50             5.49
4  CC(C)=CCC/C(C)=C/CCC(CC(=O)c1cc(O)ccc1O)C(=O)O (centres unmarked)             pIC50             5.49

Next up:
pIC50 measured on C/C(C=O)=C\CC/C(C)=C/CC/C(=C/Cc1cc(O)ccc1O)C(=O)O = 4.91

----------
Documented pIC50 across a set of molecules
Target Or Test System: α-glucosidase (Saccharomyces cerevisiae)
Construct: purchased Sigma Corporation G5003
Experiment Description: α-glucosidase inhibitory activity test in vitro
Type: biochemical
Assay Setup: read-out: α-glucosidase inhibitory activity (IC50)
// pIC50 is dimensionless: -log10 of concentration (M)

Worked set:
> print(dat)
                                   molecule  measurement.name  measured.number
1  CC(C)=CCC/C(C)=C/CCC1=C[C@@H](c2ccccc2)OC1=O [S16]             pIC50             6.64
2  CC(C)=CCC/C(C)=C/CCC1=C[C@@H](c2cc(F)c(F)c(F)c2)OC1=O [S30]             pIC50             5.90
3  CC(C)=CCC/C(C)=C/CCC1=C[C@H](c2ccc(C)cc2)OC1=O [S6]             pIC50             5.97
4  CC(C)=CCC/C(C)=C/CC/C(=C/Cc1cc(O)ccc1O)C(=O)O [S34]             pIC50             6.01

--- query ---
Reported pIC50 for CC(C)=CCC/C(C)=C/CCC1=C[C@@H](c2ccc3ccccc3c2)OC1=O [S17] was 5.20
